Target: T1, Lsb4, P32793
T1 sequence (P32793 402-468, looked up): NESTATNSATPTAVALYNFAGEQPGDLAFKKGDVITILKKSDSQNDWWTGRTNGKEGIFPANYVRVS
Experiment: SPOT array
Conditions: median of control spots 397
Binarize SPOT intensity at 5; below is true, at or above is false.

Binder: GKFIPSRPAPKPPSS
Class Label: false

Binder: WRPRIVPILPYITRL
Class Label: false

Binder: KDKKTKPTPPPKPSH
Class Label: true

Binder: KIRRSSLMIPNPQQF
Class Label: true

In plain terms, does RAPPPVPKKPSSRIA come in under 5 for SPOT intensity?
false

In plain terms, does VPPPMQPPPIESSNL come in under 5 for SPOT intensity?
false
